B1: POU domain, class 2, transcription factor 3, residues 186 to 260; numbered along this chain, Q9UKI9 (parent)
chain: SDLEELEKFAKTFKQRRIKLGFTQGDVGLAMGKLYGNDFSQTTISRFEALNLSFKNMCKLKPLLEKWLNDAESSP

variants of: B1; assay: abundance fitness (aPCA) (normalised: wild type 0, dead -1); higher = more abundant; growth selection in yeast, the domain comes from the species named; conditions: Homo sapiens
Class yes: abundance fitness at least -0.2. Class no: abundance fitness below -0.2.

Example cases with answers are listed next.
Variant id	Assigned category
L63M	yes
R46V	no
K59H	yes
S73H	yes
Q41G	yes

Proceed to the following item.
Problem: Could you please find out whether L64S has abundance fitness that meets -0.2 or exceeds it?
Solution: no

This collection of values is drawn from the Human Domainome abundance scans (Beltran et al. 2025).
